Test system: M14 melanoma
Assay: NCI-60 one-dose screen, 48 h
Conditions: 10 µM unless noted
Description: Growth inhibition of the M14 human tumor cell line is measured as a screen for anti-cancer activity. Cells are grown in 96 well plates and exposed to the test compound for 48 hours. Compounds are tested at a single concentration, which is 10^-5 M for most compounds. The reported endpoint is percent growth (GI% or GIPRCNT), where numbers from 0 - 100% represent growth inhibition, and numbers from -100% - 0 represent cell death. For example, a value of 40 represents 60% growth inhibition. […]
This is part of a sample that, as a whole, favours compounds with a hit. Of some 83,000 tested, about 20% had one in any assay. Active and inactive are the calls of the source. Rule for the calls: active = growth percent below 10; inactive = the rest.
Outcomes: active, inactive

{"molecule": "CC/C=C\\C[C@H](O)C/C=C1/C(=O)C=C[C@@H]1C/C=C\\CCCCO", "measurement target": "M14 melanoma", "group label": "inactive"}
{"molecule": "COC1=CC(=O)C[C@@H](C)[C@]12Oc1c(Cl)c(OC)cc(OC)c1C2=O", "measurement target": "M14 melanoma", "group label": "inactive"}
{"molecule": "Cc1ccc(Nc2ccc(Nc3ccc(C)cc3)c3c2C(=O)c2cccc(O)c2C3=O)cc1", "measurement target": "M14 melanoma", "group label": "inactive"}
{"molecule": "COc1cc2ncn3c(=O)c4c5c(sc4nc3c2cc1OC)CCCC5", "measurement target": "M14 melanoma", "group label": "inactive"}
{"molecule": "COc1ccc(C(=O)COc2ccc(/C=C3\\Oc4ccccc4C3=O)cc2)cc1", "measurement target": "M14 melanoma", "group label": "inactive"}
{"molecule": "C=C1C(=O)O[C@H]2[C@H]1CC/C(CNC(=O)/C=C/c1ccc(Cl)cc1Cl)=C\\CC[C@@]1(C)O[C@@H]21", "measurement target": "M14 melanoma", "group label": "active"}
{"molecule": "CCN1CCN(c2nc(C)cc(NCc3cc(Nc4ccnc5cc(Cl)ccc45)ccc3F)n2)CC1", "measurement target": "M14 melanoma", "group label": "active"}
{"molecule": "CN(c1ccccc1)c1ccc2c(c1)OCCC21CC1Nc1cnccc1C(=O)O (centres undefined)", "measurement target": "M14 melanoma", "group label": "inactive"}
{"molecule": "COc1cccc(-c2nn(-c3ccccc3)cc2-c2ccnc(NCCCNC(=O)c3ccc(F)cc3)c2)c1", "measurement target": "M14 melanoma", "group label": "inactive"}

* * *

system: NCI-H226 lung; experiment: NCI-60 one-dose screen, 48 h (100 = growth as untreated, 0 = no growth, -100 = all killed); details: 10 µM unless noted
About 83,000 compounds went through this panel and 20% of them were active in at least one assay; those are over-represented in the sample as a whole.
growth reference
measured attribute: growth (%)

{"compound": "O=c1ccn2nc3ccccc3c2[nH]1", "unit name": "%", "recorded number": 91.3}
{"compound": "COc1ccc2oc3c(C)c4c(c(C)c3c2c1)C(=O)N(Cc1ccccc1)C4=O", "unit name": "%", "recorded number": 90.1}
{"compound": "COc1cc(/C=C/C(=O)N2CCN(C(=O)c3cc(OC)c(OC)c(OC)c3)CC2)ccc1OCCCN1C(=O)c2cccc3cccc(c23)C1=O", "unit name": "%", "recorded number": 87}
{"compound": "O=C(NCCCNc1cc(-c2cn(-c3ccccc3)nc2-c2cccc(O)c2)ccn1)c1ccc(F)cc1", "unit name": "%", "recorded number": 58.9}
{"compound": "CCN1CCN(c2cc(C)nc(NCc3cc(Nc4ccnc5cc(Cl)ccc45)ccc3F)n2)CC1", "unit name": "%", "recorded number": 83.7}
{"compound": "C[n+]1cccc(CC(=O)NO)c1", "unit name": "%", "recorded number": 89.3}
{"compound": "Cc1ccccc1NC(=O)N/C(N)=N/c1nc(-c2cccc([N+](=O)[O-])c2)cs1", "unit name": "%", "recorded number": 58.8}
{"compound": "Cn1c(-c2c(N)n(Cc3cccnc3)c3nc(C#N)c(C#N)nc23)nc2ccccc21", "unit name": "%", "recorded number": 98.4}
{"compound": "O=C(Nc1cccc(Cl)c1)c1cc(N=Nc2ccc([N+](=O)[O-])cc2Cl)ccc1O", "unit name": "%", "recorded number": 97}
{"compound": "CCCCC1CCCCN1C(=O)OCC (stereo not given)", "unit name": "%", "recorded number": 121}
